Attribution: patent US20260285853A1

# System: HTT mRNA
# assay.method.text: Gene panel canonical junction qPCR assay, decrease in CJ mRNA, Table 3
# Type: cell-based
# protocol.conditions: decrease in CJ mRNA levels, canonical junction qPCR, gene panel
pIC50: −log10 of the molar value.
experimental.endpoint: pIC50

Previously resolved entries follow.
| compound | observed.value |
| --- | --- |
| CNC1CN(c2ccc(C(=O)Nc3cn4cc(C)nc(CNS(C)(=O)=O)c4n3)c3nn(C)cc23)C1 [Compound 849] | 6.00 to 7.00 |
| C[C@H]1CN(c2ccc(C(=O)Nc3cc(F)c4nn(C)cc4c3)c3nc(N)sc23)C[C@H](C)N1 [Compound 700] | 6.00 to 7.00 |
| COc1nc2c(C(=O)Nc3cc(C)c4nn(C)cc4c3)ccc(N3C[C@H](C)N[C@@H](C)C3)c2s1 [Compound 718] | 5.00 to 6.00 |

Input: Look up pIC50: Cc1cn2cc(NC(=O)c3c(F)cc(N4CCC(NC5CC5)CC4)c4nc(C)sc34)cc(F)c2n1 [Compound 662]
Output: < 5.00
